- Target of assay: human OX2R (Homo sapiens (Human), UniProt O43614)
- Sequence (O43614 whole entry): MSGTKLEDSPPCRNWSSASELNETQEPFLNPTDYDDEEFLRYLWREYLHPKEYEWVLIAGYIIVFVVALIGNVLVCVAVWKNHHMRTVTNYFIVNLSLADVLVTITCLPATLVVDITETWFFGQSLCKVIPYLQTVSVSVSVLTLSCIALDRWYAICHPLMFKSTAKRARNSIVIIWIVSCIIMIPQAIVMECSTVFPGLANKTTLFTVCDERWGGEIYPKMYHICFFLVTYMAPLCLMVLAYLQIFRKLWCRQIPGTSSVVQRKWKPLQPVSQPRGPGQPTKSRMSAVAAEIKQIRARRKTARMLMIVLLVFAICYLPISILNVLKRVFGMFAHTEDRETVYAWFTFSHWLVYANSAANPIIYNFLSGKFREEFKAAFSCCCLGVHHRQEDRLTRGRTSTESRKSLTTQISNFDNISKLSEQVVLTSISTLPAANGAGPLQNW
- Procedure details: Measurement of antagonistic activity against orexin receptors (intracellular calcium, CHOOX2R cells)
- Format: cell-based
Hi there, I'd appreciate the recorded IC50 for every entry that follows.

COc1ccc2c3c1O[C@H]1[C@H](N(C)C(=O)/C=C/c4ccccn4)CC[C@@]4(O)[C@@H](C2)N(S(=O)(=O)c2ccccc2N(C)C)CC[C@]314 :: > 10 µM

Next item in the queue.
Endpoint output: IC50 of COc1ccc2c3c1O[C@H]1[C@H](N(C)C(=O)/C=C/c4ccoc4)CC[C@@]4(O)[C@@H](C2)N(S(=O)(=O)c2ccccc2)CC[C@]314 . Value?
> 10 µM

====

Hi there, I'd appreciate the recorded IC50 for every entry that follows.
- Target of assay: UniProtKB O43613
- Sequence (O43613 whole entry): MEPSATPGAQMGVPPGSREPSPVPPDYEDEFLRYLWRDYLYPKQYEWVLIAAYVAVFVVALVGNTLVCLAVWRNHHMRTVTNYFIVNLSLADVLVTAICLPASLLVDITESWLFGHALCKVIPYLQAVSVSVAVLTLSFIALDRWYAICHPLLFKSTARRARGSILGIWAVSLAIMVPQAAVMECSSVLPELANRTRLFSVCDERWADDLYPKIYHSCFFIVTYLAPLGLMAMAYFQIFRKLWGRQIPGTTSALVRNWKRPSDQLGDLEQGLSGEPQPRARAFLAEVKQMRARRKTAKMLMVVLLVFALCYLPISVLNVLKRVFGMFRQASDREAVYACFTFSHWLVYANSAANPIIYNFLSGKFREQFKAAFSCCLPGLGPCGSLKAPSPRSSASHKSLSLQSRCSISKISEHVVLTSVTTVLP
- Procedure details: Measurement of antagonistic activity against orexin receptors (intracellular calcium, CHOOX1R cells)
- Format: cell-based
- Experimental setup: CHOOX1R cells, 300 pM OX-A, Fura-2 calcium; read-out: OX1 (IC50)
One number for each entry, in nM.

Recorded IC50, per entry:
COc1ccc2c3c1O[C@H]1[C@H](N(C)C(=O)/C=C/c4ccoc4)CC[C@@]4(O)[C@@H](C2)N(S(=O)(=O)c2ccccc2C)CC[C@]314 :: 30
COc1ccc2c3c1O[C@H]1[C@H](N(C)Cc4ccccc4)CC[C@@]4(O)[C@@H](C2)N(C(=O)OC(C)(C)C)CC[C@]314 [Comparative Example 2, reference compound] :: 2850
COc1ccc2c3c1O[C@H]1[C@H](N(C)C(=O)Nc4ccccc4)CC[C@@]4(O)[C@@H](C2)N(S(=O)(=O)c2ccccc2)CC[C@]314 :: 159

// for each molecule in input: emit IC50
1. COc1ccc2c3c1O[C@H]1[C@H](N(C)C(=O)/C=C/c4ccoc4)CC[C@@]4(O)[C@@H](C2)N(S(=O)(=O)c2ccc(N(C)C)cc2)CC[C@]314.Cl
2. COc1ccc2c3c1O[C@H]1[C@H](N(C)C(=O)/C=C/c4ccoc4)CC[C@@]4(O)[C@@H](C2)N(C(=O)C2CC2)CC[C@]314
3. COc1ccc2c3c1O[C@H]1[C@H](N(C)C(=O)/C=C/c4ccoc4)CC[C@@]4(O)[C@@H](C2)N(S(=O)(=O)c2ccccc2Br)CC[C@]314
4. COc1ccc2c3c1O[C@H]1[C@H](N(C)C(=O)/C=C/c4ccoc4)CC[C@@]4(O)[C@@H](C2)N(S(=O)(=O)c2cccc(Br)c2)CC[C@]314
5. COc1ccc2c3c1O[C@H]1[C@H](N(C)C(=O)/C=C/c4ccoc4)CC[C@@]4(O)[C@@H](C2)N(S(=O)(=O)c2cccc(C)c2)CC[C@]314
6. COc1ccc2c3c1O[C@H]1[C@H](N(C)C(=O)/C=C/c4ccoc4)CC[C@@]4(O)[C@@H](C2)N(S(=O)(=O)c2ccccc2C#N)CC[C@]314
7. COc1ccc2c3c1O[C@H]1[C@H](N(C)C(=O)/C=C/c4ccoc4)CC[C@@]4(O)[C@@H](C2)N(S(=O)(=O)c2c(C)cc(C)cc2C)CC[C@]314
8. COc1ccc2c3c1O[C@H]1[C@H](N(C)C(=O)/C=C/c4ccoc4)CC[C@@]4(O)[C@@H](C2)N(S(=O)(=O)c2ccccc2[N+](=O)[O-])CC[C@]314

[11.7, 259, 56.2, 200, 24, 49.1, 121, 144]

// for each molecule in input: emit IC50
1. COc1ccc2c3c1O[C@H]1[C@H](N(C)C(=O)/C=C/c4ccoc4)CC[C@@]4(O)[C@@H](C2)N(S(=O)(=O)c2cccc(Cl)c2)CC[C@]314
2. COc1ccc2c3c1O[C@H]1[C@H](N(C)C(=O)/C=C/c4ccoc4)CC[C@@]4(O)[C@@H](C2)N(S(=O)(=O)c2cccc(F)c2)CC[C@]314
3. COc1ccc2c3c1O[C@H]1[C@H](N(C)C(=O)/C=C/c4ccoc4)CC[C@@]4(O)[C@@H](C2)N(S(=O)(=O)C2CC2)CC[C@]314

195
112
101

// for each molecule in input: emit IC50
1. COc1ccc2c3c1O[C@H]1[C@H](N(C)C(=O)/C=C/c4ccoc4)CC[C@@]4(O)[C@@H](C2)N(C(=O)c2ccc(C)cc2)CC[C@]314
2. COc1ccc2c3c1O[C@H]1[C@H](N(C)C(=O)NCc4ccccc4)CC[C@@]4(O)[C@@H](C2)N(S(=O)(=O)c2ccccc2)CC[C@]314
3. COc1ccc2c3c1O[C@H]1[C@H](N(C)C(=O)/C=C/c4ccoc4)CC[C@@]4(O)[C@@H](C2)N(S(=O)(=O)c2ccc(C)cc2)CC[C@]314
4. COc1ccc2c3c1O[C@H]1[C@H](N(C)C(=O)/C=C/c4ccoc4)CC[C@@]4(O)[C@@H](C2)N(S(=O)(=O)c2cccc5cccnc25)CC[C@]314
5. CCCCS(=O)(=O)N1CC[C@]23c4c5ccc(OC)c4O[C@H]2[C@H](N(C)C(=O)/C=C/c2ccoc2)CC[C@@]3(O)[C@H]1C5
6. COc1ccc2c3c1O[C@H]1[C@H](N(C)C(=O)C=Cc4ccccc4)CC[C@@]4(O)[C@@H](C2)N(S(=O)(=O)c2ccccc2)CC[C@]314
7. COc1ccc2c3c1O[C@H]1[C@H](N(C)C(=O)/C=C/c4ccoc4)CC[C@@]4(O)[C@@H](C2)N(S(=O)(=O)c2ccccc2C(F)(F)F)CC[C@]314
8. CN(C(=O)/C=C/c1ccoc1)[C@@H]1CC[C@@]2(O)[C@H]3Cc4ccc(O)c5c4[C@@]2(CCN3CC2CC2)[C@H]1O5.Cl [Comparative Example 1, hydrochloride, reference compound]

571
688
162
198
87.8
128
419
1650
